# maps each entry to its Growth Percent
- Tested on: SNB-75
- test: NCI one-dose screen
- Assay type: cell-based, human
- cond: CNS SNB-75, 10 µM single dose
measurement kind: Growth Percent (%)

> print(dat)
                                   compound  measurement.units  measurement
1  Cc1c(C(=O)NCCC(=O)NO)sc2ncnc(Nc3ccc(NC(=O)Nc4cccc(C(F)(F)F)c4)cc3)c12 [Compound 11c]                  %         78.8
2  Cc1c(C(=O)NO)sc2ncnc(Nc3ccc(F)c(Cl)c3)c12 [Compound 15d]                  %         99.2
3  Cc1c(C(=O)NCCCC(=O)NO)sc2ncnc(Nc3ccccc3)c12 [Compound 20b]                  %         95.6
